- test.target: BMX (human) (UniProt P51813)
- Sequence (P51813 whole entry, looked up): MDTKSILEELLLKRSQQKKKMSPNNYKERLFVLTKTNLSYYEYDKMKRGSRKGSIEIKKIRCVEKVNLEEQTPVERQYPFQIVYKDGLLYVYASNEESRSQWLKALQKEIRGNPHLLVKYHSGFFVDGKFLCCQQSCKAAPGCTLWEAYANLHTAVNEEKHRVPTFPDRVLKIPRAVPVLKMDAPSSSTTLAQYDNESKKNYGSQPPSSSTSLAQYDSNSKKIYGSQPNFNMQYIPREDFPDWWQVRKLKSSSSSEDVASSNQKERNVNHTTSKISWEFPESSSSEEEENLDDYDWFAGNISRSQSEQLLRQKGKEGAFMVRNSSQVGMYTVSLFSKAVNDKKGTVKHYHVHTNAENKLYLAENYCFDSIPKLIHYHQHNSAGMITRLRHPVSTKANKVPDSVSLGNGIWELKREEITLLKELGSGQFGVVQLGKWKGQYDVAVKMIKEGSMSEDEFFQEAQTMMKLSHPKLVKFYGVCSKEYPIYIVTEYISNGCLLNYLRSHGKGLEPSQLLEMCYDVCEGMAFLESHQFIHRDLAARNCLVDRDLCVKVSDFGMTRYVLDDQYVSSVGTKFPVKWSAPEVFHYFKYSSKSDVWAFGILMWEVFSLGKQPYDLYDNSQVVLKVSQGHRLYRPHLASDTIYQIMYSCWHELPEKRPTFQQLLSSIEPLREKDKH
- assay.info: radiometric filter-binding kinase assay, Kinase HotSpot
- protocol.conditions: compound 0.5 µM; ATP 10 µM
measurement.type: residual activity
# do not omit the unit; it follows the number

# example entries with known answers
mol_smiles=Cc1cccc(-c2nc(C(C)(C)C)[nH]c2-c2ccc3c(c2)OCO3)n1 measurement_type="residual activity" result=82%
mol_smiles=N#Cc1c[nH]c2c[nH]/c(=N\Cc3cccnc3)cc2/c1=N\c1ccc(F)c(Cl)c1 measurement_type="residual activity" result=84%
mol_smiles=CN(C)S(=O)(=O)c1ccc2c(c1)/C(=C/c1cc3c([nH]1)CCCC3)C(=O)N2 measurement_type="residual activity" result=103%
mol_smiles=O=C(c1cc2cc(O)ccc2[nH]1)c1cc2cc(O)ccc2[nH]1 measurement_type="residual activity" result=80.6%
mol_smiles=COc1ccc(C(=O)Nc2sc3c(c2C(N)=O)CCCC3)cc1OC measurement_type="residual activity" result=89.8%

In the following, a different compound is considered.
Supply recorded residual activity for "O=C1C(Cl)=C(N2C(=O)CCC2=O)C(=O)c2ccccc21" here.
103%
